- Test system: DU145 prostate cancer
- assay-name: MTS cell viability assay, DU145 prostate cancer cell line
- Format: cell-based
- assay-conditions: Table 2; DU145 prostate; 10 μM, 48 h
Please respond with reported Viability (% CTL) at 10 μM DU145 prostate for every item in the list.
Dear colleague, please return just the value in % CTL, with no unit written.

Request: Under DU145 prostate cancer: Viability (% CTL) at 10 μM DU145 prostate value of COc1cc(C(=O)Nc2cc3ncc(Nc4ccccc4)nc3nc2C)cc(OC)c1OC [Compound 11] ?
Result: 105

Request: Item: Cc1nc2nc(Nc3ccccc3)cnc2cc1NC(=O)CNc1ccccc1 [Compound 26E] Test system: DU145 prostate cancer Read-out: Viability (% CTL) at 10 μM DU145 prostate Value: ?
Result: 85

Request: Requested read-out Viability (% CTL) at 10 μM DU145 prostate, target or system DU145 prostate cancer, entry Cc1nc2nc(Nc3ccccc3)cnc2cc1N [Compound 7]
Result: 76

Request: Record lookup: for DU145 prostate cancer, what Viability (% CTL) at 10 μM DU145 prostate belongs to Cc1nc2nc(Nc3ccccc3)cnc2cc1NC(=O)c1ccc(NC(=O)Nc2ccccc2)cc1 [Compound 14] ?
Result: 80

Request: Form field: Viability (% CTL) at 10 μM DU145 prostate recorded for Cc1ccc(C(=O)Nc2cc3ncc(Nc4ccccc4)nc3nc2C)cc1 [Compound 9] with DU145 prostate cancer (enter value)
Result: 82

---

- Tested on: DU145 prostate cancer
- assay-name: MTS cell viability assay, DU145 prostate cancer cell line
- Format: cell-based
- assay-conditions: Table 1; DU145 prostate; screened at 10 μM, 48 h
property-name: Viability % CTL DU145 prostate (% CTL)
Give the number; % CTL is assumed, so skip it.

Request: What value of Viability % CTL DU145 prostate has been reported for the following compound? Cc1nc2nc(Oc3ccccc3)cnc2cc1NC(=O)Nc1ccccc1 [Compound 57C]
Result: 126

Request: What measured Viability % CTL DU145 prostate goes with Cc1nc2nc(Nc3ccccc3)cnc2cc1NC(=O)Nc1ccc(F)c(Cl)c1 ?
Result: 0

Request: Fill in the blank: the reported Viability % CTL DU145 prostate of Cc1nc2nc(Sc3ccccc3)cnc2cc1NC(=O)c1ccccc1C(F)(F)F [Compound 16B] is ____.
Result: 120

Request: Tell me the measured Viability % CTL DU145 prostate of Cc1nc2nc(Oc3ccccc3)cnc2cc1N [Compound 56D] , please.
Result: 108

Request: Recorded Viability % CTL DU145 prostate of Cc1ccc(C(=O)Nc2cc3nccnc3nc2C)cc1 [Compound 08A] , please.
Result: 96

Request: Look up Viability % CTL DU145 prostate for this compound: Cc1nc2nc(Sc3ccccc3)cnc2cc1NC(=O)c1cccc(C(F)(F)F)c1 [Compound 15B]
Result: 113

Request: So what does the record say about Viability % CTL DU145 prostate for Cc1nc2nc(Nc3ccccc3)cnc2cc1NC(=O)Nc1cccc(C(F)(F)F)c1 ?
Result: 10

Request: Which Viability % CTL DU145 prostate reading was recorded for the compound Cc1nc2nccnc2cc1NC(=O)c1ccc(N)cc1 [Compound 12A] ?
Result: 99

Request: For Cc1nc2nccnc2cc1NC(=S)NCc1ccccc1 [Compound 18A] , what is its reported Viability % CTL DU145 prostate?
Result: 89

Request: Given the entry Cc1nc2nccnc2cc1NC(=O)CN(C)C [Compound 14A] , report its measured Viability % CTL DU145 prostate.
Result: 101

Request: Entry under review: Cc1nc2nccnc2cc1NC(=O)Nc1cccc(C(F)(F)F)c1 [Compound 17A] . Reported Viability % CTL DU145 prostate?
Result: 98

Request: So what's the measured Viability % CTL DU145 prostate for this one? Cc1nc2nccnc2cc1NC(=O)Nc1ccc(F)c(Cl)c1 [Compound 16A]
Result: 99

Request: Look up Viability % CTL DU145 prostate: COc1cc(C(=O)Nc2cc3nccnc3nc2C)cc(OC)c1OC [Compound 07A]
Result: 122

Request: Consider the compound shown here: Cc1nc2nc(Sc3ccccc3)cnc2cc1NC(=O)Nc1ccc(F)c(Cl)c1 [Compound 18B] What is its recorded Viability % CTL DU145 prostate?
Result: 124

Request: Look up Viability % CTL DU145 prostate: Cc1nc2nc(Nc3ccccc3)cnc2cc1NC(=O)c1cccc(C(F)(F)F)c1
Result: 93

Request: Could you tell me which Viability % CTL DU145 prostate is on file for Cc1nc2nccnc2cc1NC(=O)c1ccccc1 [Compound 06A] ?
Result: 94

Request: Any idea what Viability % CTL DU145 prostate was measured for Cc1nc2nc(Sc3ccccc3)cnc2cc1NC(=O)Nc1cccc(C(F)(F)F)c1 [Compound 17B] ?
Result: 101

Request: Viability % CTL DU145 prostate lookup needed for Cc1nc2nccnc2cc1NC(=O)c1ccc(Br)cc1F [Compound 10A] , thanks.
Result: 95

Request: So what's the measured Viability % CTL DU145 prostate for this one? Cc1nc2nccnc2cc1NC(=O)CN1CCN(C)CC1 [Compound 13A]
Result: 86

Request: If you can, please state the reported Viability % CTL DU145 prostate value of Cc1nc2nccnc2cc1NC(=O)c1cccc(C(F)(F)F)c1 [Compound 09A] .
Result: 103

Request: I have this compound here, Cc1nc2nc(Oc3ccccc3)cnc2cc1[N+](=O)[O-] [Compound 55C] , and I need its recorded Viability % CTL DU145 prostate.
Result: 95

Request: Param item = Cc1ccc(S(=O)(=O)Nc2cc3nccnc3nc2C)cc1 [Compound 19A] ; retrieve measured Viability % CTL DU145 prostate.
Result: 122

Request: Which Viability % CTL DU145 prostate reading was recorded for the compound Cc1nc2nccnc2cc1NC(=O)c1ccc([N+](=O)[O-])cc1 [Compound 11A] ?
Result: 106

Request: For the compound Cc1nc2nc(Sc3ccccc3)cnc2cc1NC(=O)Nc1ccc(F)c([N+](=O)[O-])c1 [Compound 20B] , what Viability % CTL DU145 prostate is on record?
Result: 89

Request: I have this compound here, Cc1nc2nccnc2cc1NC(=O)Nc1ccccc1 [Compound 15A] , and I need its recorded Viability % CTL DU145 prostate.
Result: 104

Request: Which Viability % CTL DU145 prostate value is on record for CSc1ccc(NC(=O)Nc2cc3ncc(Sc4ccccc4)nc3nc2C)cc1 [Compound 19B] ?
Result: 113

---

- System: A2058 melanoma
- assay-name: MTS cell viability assay, A2058 melanoma cell line
- Assay type: cell-based
- assay-conditions: Table 4, 10 μM, 48 h
Give Viability % CTL A2058 melanoma (10 μM) for every item shown.
Please respond with the number in % CTL and leave the unit unwritten.

Request: I'd like to know its Viability % CTL A2058 melanoma (10 μM). The molecule in question is Cc1nc2nc(Nc3ccc(C(=O)O)cc3)cnc2cc1NC(=O)Nc1cccc(C(F)(F)F)c1
Result: 113

Request: Find the recorded Viability % CTL A2058 melanoma (10 μM) belonging to CC(=O)Nc1ccc(Nc2cnc3cc(NC(=O)Nc4ccc(F)c(Cl)c4)c(C)nc3n2)cc1 and report it.
Result: 65

Request: For CSc1ccc(NC(=O)Nc2cc3ncc(Nc4ccccc4)nc3nc2C)cc1 , what is its reported Viability % CTL A2058 melanoma (10 μM)?
Result: 7

Request: Record request: Viability % CTL A2058 melanoma (10 μM) value, item CC(=O)Nc1cccc(Nc2cnc3cc(NC(=O)Nc4ccc(F)c(Cl)c4)c(C)nc3n2)c1
Result: 118

Request: Give the measured Viability % CTL A2058 melanoma (10 μM) of CCOC(=O)c1ccc(Nc2cnc3cc(NC(=O)Nc4ccc(F)c(Cl)c4)c(C)nc3n2)cc1 .
Result: 35

Request: // query Viability % CTL A2058 melanoma (10 μM) value for entry CC(=O)Nc1ccc(Nc2cnc3cc(NC(=O)Nc4cccc(C(F)(F)F)c4)c(C)nc3n2)cc1
Result: 109

Request: Please look up its Viability % CTL A2058 melanoma (10 μM): Cc1nc2nc(Nc3ccc(C(=O)O)cc3)cnc2cc1NC(=O)Nc1ccc(F)c(Cl)c1
Result: 98

Request: Given CC(=O)Nc1cccc(Nc2cnc3cc(NC(=O)Nc4cccc(C(F)(F)F)c4)c(C)nc3n2)c1 , state its recorded Viability % CTL A2058 melanoma (10 μM).
Result: 119

Request: GET /values?readout=Viability % CTL A2058 melanoma (10 μM)&item= COc1cc(Nc2cnc3cc(NC(=O)Nc4cccc(C(F)(F)F)c4)c(C)nc3n2)cc(OC)c1OC
Result: 116

Request: Endpoint output: Viability % CTL A2058 melanoma (10 μM) of Cc1nc2nc(Nc3ccccc3)cnc2cc1NC(=O)Nc1ccc(Cl)cc1Cl . Value?
Result: 60

Request: # query: Viability % CTL A2058 melanoma (10 μM) of entry CCOC(=O)c1ccc(Nc2cnc3cc(NC(=O)Nc4cccc(C(F)(F)F)c4)c(C)nc3n2)cc1
Result: 37
